Test system: Drosophila S2 cl14 SmoIP sensor cells
Assay Details: normalized SmoIP GFP fluorescence (untreated unstimulated = 0%, untreated Hh-stimulated = 100%); higher = more Smo activation sensor fluorescence
Condition Summary: stimulation: Hh conditioned medium (+Hh); compound concentration: 2 uM; 24 h
Value Type: normalized SmoIP GFP fluorescence (%)
State just the number; it will be interpreted in %.

Item under review: Nc1ccn([C@H]2CC[C@@H](CO)O2)c(=O)n1 . Reported normalized SmoIP GFP fluorescence?
114

Now the same for Cc1ccc([C@@H]2O[C@H](CO)[C@@H](O)[C@H](O)[C@H]2O)cc1Cc1ccc(-c2ccc(F)cc2)s1
123

Now the same for COc1ccc(CC(C)NCC(O)c2ccc(O)c(NC=O)c2)cc1 (configuration not stated) [formoterol-hemifumarate]
129

Now the same for OCc1ccc(-c2ccc(-c3ccc(CO)s3)o2)s1
111

Now the same for CC1(C)Cc2c(-c3ccccc3)c(-c3ccc(Cl)cc3)c(CC(=O)O)n2C1
121

Now the same for Nc1ncnc2n[nH]c(Nc3ccc(F)cc3)c12
89.9

Now the same for CNC(=O)c1cc(COc2nnc(Nc3ccc(Cl)cc3)c3ccoc23)ccn1
104

----------
Tested on: Drosophila S2 cl14 SmoIP sensor cells
Assay Details: normalized SmoIP GFP fluorescence (untreated unstimulated = 0%, untreated Hh-stimulated = 100%); higher = more Smo activation sensor fluorescence
Condition Summary: stimulation: Hh conditioned medium (+Hh); compound concentration: 2 uM; 24 h
Counter-ions that a name gives are not always drawn.
Value Type: normalized SmoIP GFP fluorescence (%)
State just the number; it will be interpreted in %.

# returns recorded normalized SmoIP GFP fluorescence (system: Drosophila S2 cl14 SmoIP sensor cells) for O=C(Nc1ccccc1)N1CCN(c2nc(-c3ccccc3)ns2)CC1
104

Now the same for CCO[C@@H]1OC(=O)C[C@@H]1NC(=O)[C@@H]1CCCN1C(=O)[C@@H](NC(=O)c1ccc(N)c(Cl)c1)C(C)(C)C
135

Now the same for CC(=O)O[C@]1(C(C)=O)CC[C@H]2[C@@H]3C[C@H](C)C4=CC(=O)CC[C@]4(C)[C@H]3CC[C@@]21C [Medroxyprogesterone-acetate]
116

Now the same for Cc1cc(Nc2cc(CN3CCOCC3)c3nc(C)c(Cc4ccc(Cl)cc4F)n3n2)n[nH]1
109

Now the same for CN1CCN(C(c2ccccc2)c2ccccc2)CC1 [cyclizine-2hcl]
104

Now the same for CCOC(=O)c1ccc(N2NC(=O)C(=Cc3ccc([N+](=O)[O-])o3)C2=O)cc1
119

Now the same for C[C@H](NC(=O)[C@@H](O)c1cc(F)cc(F)c1)C(=O)N[C@@H]1C(=O)N(C)c2ccccc2-c2ccccc21
145

Now the same for O=C1C(=O)N(Cc2ccc(Cl)c(Cl)c2)c2ccccc21
103

Now the same for Cn1cnc2c(F)c(Nc3ccc(Br)cc3F)c(C(=O)NOCCO)cc21
138

Now the same for CCc1cc2c(cc1N1CCC(N3CCOCC3)CC1)C(C)(C)c1[nH]c3cc(C#N)ccc3c1C2=O
148

Now the same for CNCCc1ccccn1 [betahistine-dihydrochloride]
98.3

Now the same for Cc1cccc(-c2[nH]c(C(C)(C)C)nc2-c2ccc3nccnc3c2)n1
102

Now the same for CC(C)N(C[C@H]1O[C@@H](n2cnc3c(N)ncnc32)[C@H](O)[C@@H]1O)[C@H]1C[C@@H](CCc2nc3cc(C(C)(C)C)ccc3[nH]2)C1
124

Now the same for CCNC(=O)Nc1ccc(-c2nc3c(c(N4CCOC[C@@H]4C)n2)CCN(C2COC2)C3)cc1
93.3

Now the same for O=C(O)C1(Cc2cccc(Nc3nccs3)n2)CCC(Oc2cccc(Cl)c2F)CC1 (stereo unspecified)
179

Now the same for CCc1c(C(=O)NCCc2ccc(N3CCCCC3)cc2)[nH]c2ccc(Cl)cc12
167

Now the same for C[S+]([O-])c1ccc(-c2nc(-c3ccc(F)cc3)c(-c3ccncc3)[nH]2)cc1 (stereo unspecified)
119

Now the same for COc1cc2c(cc1Cc1cccc(Cl)c1F)c(=O)c(C(=O)O)cn2[C@H](CO)C(C)C
143

Now the same for Cc1nnc(C(=O)NC(C)(C)c2nc(C(=O)NCc3ccc(F)cc3)c(O)c(=O)n2C)o1
111

Now the same for CC(=O)c1c(C)c2cnc(Nc3ccc(N4CCNCC4)cn3)nc2n(C2CCCC2)c1=O
150

Now the same for CC(C)c1cc(-c2n[nH]c(=O)n2-c2ccc3c(ccn3C)c2)c(O)cc1O
103

Now the same for CCC(=O)Nc1cccc(Oc2nc(Nc3ccc(N4CCN(C)CC4)cc3OC)ncc2Cl)c1
73.7

Now the same for CN(C)CCOc1ccc(-c2nc(-c3ccncc3)c(-c3ccc4c(c3)CC/C4=N\O)[nH]2)cc1
114

Now the same for C=CC(=O)Nc1ccc2ncnc(Nc3cccc(Br)c3)c2c1
125

Now the same for OCCOCCN1CCN(C2=Nc3ccccc3Sc3ccccc32)CC1 [Quetiapine-fumarate(Seroquel)]
106

Now the same for c1ccc2c(CC3=NCCN3)cccc2c1 [Naphazoline-hydrochloride-Naphcon]
118

Now the same for CN[C@@H](C)C(=O)N[C@H](C(=O)N1CCC[C@H]1C(=O)Nc1snnc1-c1ccccc1)C1CCCCC1
85.6

Now the same for Cc1ccc(NC(=O)C2(c3ccc4c(c3)OC(F)(F)O4)CC2)nc1-c1cccc(C(=O)O)c1
80

Now the same for CCn1cc(-c2ccnc3[nH]c(-c4cccc(CN(C)C)c4)cc23)c(-c2ccc(NC(=O)N(C)C)cc2)n1
173

Now the same for CC(C)n1nc(-c2cc3cc(O)ccc3[nH]2)c2c(N)ncnc21
117

Now the same for COc1ccc(C(=O)Nc2sc3c(c2C(N)=O)CCCC3)cc1OC
128

Now the same for CN(C)CCC[C@@]1(c2ccc(F)cc2)OCc2cc(C#N)ccc21 [escitalopram-oxalate]
107

Now the same for CCOc1ccc(Cc2cc([C@@H]3O[C@H](CO)[C@@H](O)[C@H](O)[C@H]3O)ccc2Cl)cc1
75.9

Now the same for COc1cc2nccc(Oc3ccc(NC(=O)Nc4cc(C)on4)c(Cl)c3)c2cc1OC
111

Now the same for Oc1ccc(Nc2nc(-c3ccc(Cl)cc3)cs2)cc1
113

Now the same for Cc1cc(Nc2nc(N[C@@H](C)c3ccc(F)cc3)c(C#N)cc2F)n[nH]1
109

----------
Tested on: Drosophila S2 cl14 SmoIP sensor cells;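 note: flow cytometry read-out as median GFP intensity of gated cells, compounds added 30 min before Hh-conditioned or mock medium, mock-treated cells serving as unstimulated baseline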
Assay Details: normalized SmoIP GFP fluorescence (untreated unstimulated = 0%, untreated Hh-stimulated = 100%); higher = more Smo activation sensor fluorescence
Condition Summary: stimulation: Hh conditioned medium (+Hh); compound concentration: 2 uM; 24 h
Value Type: normalized SmoIP GFP fluorescence
Include the unit after the number when you answer.

Item under review: CN1CCN(c2ccc3nc(-c4c(N)c5c(F)cccc5[nH]c4=O)[nH]c3c2)CC1 . Reported normalized SmoIP GFP fluorescence?
63.2%

Now the same for CN1CCC(=C2c3ccccc3CCc3cccnc32)CC1 [azatadine-dimaleate]
114%

Now the same for CC#CCn1c(N2CCC[C@@H](N)C2)nc2c1c(=O)n(Cc1nc(C)c3ccccc3n1)c(=O)n2C
118%

Now the same for CC(C)NCC(O)COc1ccc(COCCOC(C)C)cc1 (stereo not drawn) [Bisoprolol-Fumarate]
103%

Now the same for N#Cc1ccc(C(c2ccc(C#N)cc2)n2cncn2)cc1
98.8%

Now the same for CCOC(=O)[C@H](CCc1ccccc1)N[C@H]1CCCN2CCC[C@H](C(=O)O)N2C1=O [cilazapril-monohydrate-inhibace]
111%

Now the same for Oc1cccc(-c2nc(N3CCOCC3)c3oc4ncccc4c3n2)c1
85.1%

Now the same for COc1c(C)cnc(Cn2cnc3c(Cl)nc(N)nc32)c1C
121%

Now the same for CC(C)(C)NC(=O)[C@H]1CC[C@H]2[C@@H]3CC[C@H]4NC(=O)C=C[C@]4(C)[C@H]3CC[C@]12C [Finasteride]
77.5%

Now the same for CN(C)CC(c1ccc(O)cc1)C1(O)CCCCC1 (stereo not drawn)
105%

Now the same for CNC(=O)c1cc(Oc2ccc(NC(=O)Nc3ccc(Cl)c(C(F)(F)F)c3)cc2)ccn1 [sorafenib]
107%

Now the same for COc1cc2nccc(Oc3ccc(NC(=O)NC4CC4)c(Cl)c3)c2cc1C(N)=O
99.3%

Now the same for CC(C)C1CCC(C(=O)N[C@H](Cc2ccccc2)C(=O)O)CC1 (stereo partly drawn) [Nateglinide(Starlix)]
110%

Now the same for CC(C)CN(C[C@@H](O)[C@H](Cc1ccccc1)NC(=O)O[C@H]1CO[C@H]2OCC[C@H]21)S(=O)(=O)c1ccc(N)cc1 [Darunavir-Ethanolate(Prezista)]
101%

Now the same for CC(=O)c1cc([N+](=O)[O-])c(Sc2cccc(Cl)c2Cl)s1
108%

Now the same for CC(=O)Nc1cccc(N2C(=O)N(C3CC3)C(=O)C3C(Nc4ccc(I)cc4F)N(C)C(=O)C(C)C32)c1 (stereo not drawn)
140%

Now the same for CN1C(=O)C(Cc2c[nH]c3ccccc23)NC1=S (stereo not drawn)
134%

Now the same for Nc1ccccc1NC(=O)c1ccc(CNC(=O)OCc2cccnc2)cc1
203%
